# METHOD DESCRIPTION: Cytotoxicity against MRC-5 fibroblasts
# RUN CONDITIONS: human, MRC-5 fibroblasts, MRC-5 EC50, Table 2; cytotoxicity
RESULT TYPE: pEC50
Bear in mind: pEC50 is minus log10 of a mol/L concentration; give just that figure.

Ask: Given `Nc1ncnc2c1c(-c1cccc(Cl)c1)cn2[C@@H]1O[C@H](CO)C[C@H]1O` , state its recorded pEC50.
Reply: 4.44

Ask: Can you share its pEC50? I mean this molecule: `Nc1ncnc2c1c(Br)cn2[C@@H]1O[C@H](CO)C[C@H]1O`
Reply: 4.79

Ask: Requested read-out: pEC50. Entry: `CCc1ccc(-c2cn([C@@H]3O[C@H](CO)C[C@H]3O)c3ncnc(N)c23)cc1`
Reply: 4.74

Ask: Item under review: `Nc1ncnc2c1c(-c1ccc(Cl)c(F)c1)cn2[C@@H]1O[C@H](CO)C[C@H]1O` . Reported pEC50?
Reply: 4.73

Ask: Data request, read-out pEC50, for `Nc1ncnc2c1c(-c1ccc(C(F)(F)F)cc1)cn2[C@@H]1O[C@H](CO)C[C@H]1O`
Reply: 4.40

Ask: Need pEC50 of `Nc1ncnc2c1c(C(F)(F)F)cn2[C@@H]1O[C@H](CO)C[C@H]1O` , thanks.
Reply: 6.18

Ask: I'd like to know its pEC50. The molecule in question is `COc1cc(-c2cn([C@@H]3O[C@H](CO)C[C@H]3O)c3ncnc(N)c23)ccc1Cl`
Reply: 4.77

Ask: Sample `Cc1cc(-c2cn([C@@H]3O[C@H](CO)C[C@H]3O)c3ncnc(N)c23)ccc1Cl` — what was its pEC50?
Reply: 4.78

Ask: Which pEC50 value is on record for `Nc1ncnc2c1c(-c1cc(Cl)cc(Cl)c1)cn2[C@@H]1O[C@H](CO)C[C@H]1O` ?
Reply: 4.52

Ask: Fill in: pEC50 of `OC[C@@H]1C[C@@H](O)[C@H](n2cc(Br)c3cncnc32)O1` is ___
Reply: 4.68

###

# METHOD DESCRIPTION: Cytotoxicity against MRC-5 fibroblasts
# RUN CONDITIONS: human, MRC-5 fibroblasts, MRC-5 EC50, Table 4; cytotoxicity
RESULT TYPE: EC50

Ask: Given the entry `Nc1ncnc2c1c(-c1ccc(F)cn1)cn2[C@@H]1O[C@H](CO)[C@@H](O)[C@H]1O` , report its measured EC50.
Reply: > 64 µM

Ask: Request the reported EC50 associated with `CCCOc1ncnc2c1c(Cl)cn2[C@@H]1O[C@H](CO)[C@@H](O)[C@H]1O`
Reply: 2.81 µM

Ask: Can you share its EC50? I mean this compound: `Nc1ncnc2c1c(-c1ccc(Cl)cc1)cn2[C@@H]1O[C@H](CO)[C@@H](O)[C@H]1O`
Reply: 27 µM

Ask: What value of EC50 has been reported for the following compound? `Nc1ncnc2c1c(-c1cc(Cl)cc(Cl)c1)cn2[C@@H]1O[C@H](CO)[C@@H](O)[C@H]1O`
Reply: > 64 µM

Ask: Tell me the measured EC50 of `Nc1ncnc2c1c(-c1ccc(Cl)c(Cl)c1)cn2[C@@H]1O[C@H](CO)[C@@H](O)[C@H]1O` , please.
Reply: 14.7 µM

Ask: Would you mind telling me what EC50 value was observed for `CCOc1ncnc2c1c(Cl)cn2[C@@H]1O[C@H](CO)[C@@H](O)[C@H]1O` ?
Reply: 48.5 µM

Ask: EC50 lookup needed for `Nc1ccnc2c1c(I)cn2[C@@H]1O[C@H](CO)[C@@H](O)[C@H]1O` , thanks.
Reply: > 64 µM

Ask: Please look up its EC50: `Nc1ncnc2c1c(-c1cccnc1)cn2[C@@H]1O[C@H](CO)[C@@H](O)[C@H]1O`
Reply: > 64 µM

Ask: Give the measured EC50 of `Cc1ccc(-c2cn([C@@H]3O[C@H](CO)[C@@H](O)[C@H]3O)c3ncnc(N)c23)cc1` .
Reply: 26.2 µM

Ask: # lookup: EC50 of `Nc1ncnc2c1c(-c1ccc(Cl)cn1)cn2[C@@H]1O[C@H](CO)[C@@H](O)[C@H]1O`
Reply: > 64 µM

Ask: I am curious: what EC50 value has been reported for `COc1ncnc2c1c(Br)cn2[C@@H]1O[C@H](CO)[C@@H](O)[C@H]1O` ?
Reply: > 64 µM

Ask: So what does the record say about EC50 for `COc1ncnc2c1c(Cl)cn2[C@@H]1O[C@H](CO)[C@@H](O)[C@H]1O` ?
Reply: 48 µM

Ask: Could you share which EC50 value was measured for `Nc1ncnc2c1c(-c1cccc(Cl)n1)cn2[C@@H]1O[C@H](CO)[C@@H](O)[C@H]1O` ?
Reply: > 64 µM

Ask: Fill blank: measured EC50 of the compound `Nc1ncnc2c1c(-c1cccc(Cl)c1)cn2[C@@H]1O[C@H](CO)[C@@H](O)[C@H]1O` is ____.
Reply: 32.8 µM

Ask: // EC50 lookup, key: `Nc1ncnc2c1c(-c1cnccn1)cn2[C@@H]1O[C@H](CO)[C@@H](O)[C@H]1O`
Reply: 0.55 µM

Ask: So what's the measured EC50 for this one? `CCCCOc1ncnc2c1c(Cl)cn2[C@@H]1O[C@H](CO)[C@@H](O)[C@H]1O`
Reply: 1.32 µM

Ask: Can you share its EC50? I mean this compound: `Nc1ncnc2c1c(-c1ccccc1)cn2[C@@H]1O[C@H](CO)[C@@H](O)[C@H]1O`
Reply: 56.2 µM

Ask: Suppose we examine the compound `CC(C)Oc1ncnc2c1c(Cl)cn2[C@@H]1O[C@H](CO)[C@@H](O)[C@H]1O` ; what EC50 value has been reported?
Reply: > 64 µM

Ask: Would you mind telling me what EC50 value was observed for `Nc1ncnc2c1c(-c1ccc(F)cc1)cn2[C@@H]1O[C@H](CO)[C@@H](O)[C@H]1O` ?
Reply: > 64 µM

###

Give measured EC50 for each item. Keep answers brief.
# Test system: MRC-5 fibroblasts
# METHOD DESCRIPTION: in vitro
Write down the numeric answer in µM and omit the unit.

Ask: Look at this compound and give its reported EC50. `Nc1ncnc2c1c(-c1ccccn1)cn2[C@@H]1O[C@H](CO)C[C@H]1O`
Reply: 33.7

Ask: Name the recorded EC50 for `C[C@@H]1C[C@@H](O)[C@H](n2cc(Br)c3c(N)ncnc32)O1` .
Reply: 10.2

Ask: Fill blank: measured EC50 of the compound `Nc1ncnc2c1c(Br)cn2[C@H]1CC[C@@H](CO)O1` is ____.
Reply: 16.4

###

# System: MRC-5 fibroblasts
# METHOD DESCRIPTION: in vitro
Hi there, I'd appreciate the recorded pEC50 for every entry that follows.
Scale explanation: pEC50 corresponds to minus log10 of a concentration expressed in moles per litre.

Ask: Any idea what pEC50 was measured for `COC[C@@H]1C[C@@H](O)[C@H](n2cc(Br)c3c(N)ncnc32)O1` ?
Reply: 4.64

Ask: # get_value(readout='pEC50', item= `Cn1cnc(-c2cn([C@@H]3O[C@H](CO)[C@@H](O)[C@H]3O)c3ncnc(N)c23)c1` )
Reply: 4.63

Ask: Reported pEC50 for `COc1ncnc2c1c(Br)cn2[C@@H]1O[C@H](CO)C[C@H]1O` : what is it?
Reply: 5.57

Ask: Given `Nc1ncnc2c1c(Cl)cn2[C@@H]1O[C@H](CO)[C@@H](O)[C@H]1O` , state its recorded pEC50.
Reply: 4.48

###

I'd be grateful if you could share measured pEC50 for these entries.
# Tested on: T. cruzi Tulahuen CL2 β galactosidase strain
# METHOD DESCRIPTION: T. cruzi Tulahuen CL2 β galactosidase strain on MRC-5SV2 cells (CPRG)
# Assay type: cell-based, Trypanosoma cruzi
# RUN CONDITIONS: Trypanosoma cruzi, TULAHUEN, MRC-5 SV2; Table 5; average of 2-4 independent replicates
# log scale: pEC50 equals minus log10 of the concentration in mol/L

Ask: Given `CCOc1ncnc2c1c(Cl)cn2[C@@H]1O[C@H](CO)[C@@H](O)[C@H]1O` , state its recorded pEC50.
Reply: 5.20

Ask: What pEC50 value was documented for this compound, `Nc1ncnc2c1c(-c1ccc(Cl)cn1)cn2[C@@H]1O[C@H](CO)[C@@H](O)[C@H]1O` ?
Reply: 5.62

Ask: Which measured pEC50 value corresponds to `Nc1ncnc2c1ccn2[C@@H]1O[C@H](CO)[C@@H](O)[C@H]1O` ?
Reply: 6.47

Ask: For the compound shown here, `CC(C)Oc1ncnc2c1c(Cl)cn2[C@@H]1O[C@H](CO)[C@@H](O)[C@H]1O` , give the reported pEC50.
Reply: 4.64

###

# METHOD DESCRIPTION: Cytotoxicity against MRC-5 fibroblasts
# RUN CONDITIONS: human, MRC-5 fibroblasts, MRC-5 EC50, Table 1; cytotoxicity
Consider the cut-off 20 µM. If the recorded EC50 is strictly smaller, the label is MET; if not, the label is NOT MET.

Ask: Does the reported EC50 of `CN(C)c1ncnc2c1c(Br)cn2[C@@H]1O[C@H](CO)C[C@H]1O` stay below 20 µM?
Reply: NOT MET

Ask: Say whether its EC50 is strictly beneath 20 µM. Entry: `Nc1ncnc2c1c(-c1ccc(C(F)(F)F)cc1)cn2[C@@H]1O[C@H](CO)C[C@H]1O`
Reply: NOT MET

Ask: Criterion: EC50 strictly below 20 µM. Is it met by `CCc1ccc(-c2cn([C@@H]3O[C@H](CO)C[C@H]3O)c3ncnc(N)c23)cc1` ?
Reply: MET

Ask: Identify whether the molecule `Nc1ncnc2c1c(-c1ccc(Cl)cc1)cn2[C@@H]1O[C@H](CO)C[C@H]1O` records EC50 below 20 µM.
Reply: MET

Ask: Hello, is EC50 of the following molecule strictly smaller than 20 µM? `Nc1ncnc2c1c(-c1cccc(Cl)c1)cn2[C@@H]1O[C@H](CO)C[C@H]1O`
Reply: NOT MET

Ask: Determine if `Nc1ncnc2c1ccn2[C@@H]1O[C@H](CO)C[C@@H]1O` shows EC50 strictly lower than 20 µM.
Reply: NOT MET

Ask: Would you kindly verify if EC50 of `Nc1ncnc2c1c(/C=C/c1ccccc1)cn2[C@@H]1O[C@H](CO)C[C@H]1O` is strictly less than 20 µM?
Reply: NOT MET

Ask: EC50 under 20 µM? Item: `CCc1cn([C@@H]2O[C@H](CO)C[C@H]2O)c2ncnc(N)c12`
Reply: NOT MET

Ask: Regarding `Nc1ncnc2c1c(C(F)(F)F)cn2[C@@H]1O[C@H](CO)C[C@H]1O` , kindly confirm whether its EC50 is beneath 20 µM.
Reply: MET
